tested on: Mus musculus; assay: In vivo antitumor activity was measured in mice (P388 leukemia) at dose 100 mg/kg after intraperitoneal administration; type: functional
Endpoint: T/C (%)
Field format: number, assumed %, no unit text.

Query: // Input: C/C=C/C(OCC)c1ccc(C(C)C)cc(=O)c1O (configuration not stated) . Output its T/C only.
Reply: 101

Query: Hello, please tell me recorded T/C for this one: COc1c(C2OCCc3ccccc32)ccc(C(C)C)cc1=O (configuration not stated)
Reply: 93

Query: Given "CC(C)c1ccc(C(c2ccccc2)c2ccccc2)c(O)c(=O)c1" , respond with its T/C.
Reply: 119

Query: Return the recorded T/C value; entry: "COc1cc(C(C)C)cccc1=O"
Reply: 108

Query: Specify measured T/C for O=c1ccccc(C2OCCc3ccccc32)c1O (configuration not stated) .
Reply: 104

Query: Dear colleague, please send me the reported T/C for CCOC(c1ccccc1)c1ccc(C(C)C)cc(=O)c1O (configuration not stated) when you can.
Reply: 102

Query: Using the record for "CC(C)c1ccc(Cc2ccccc2)c(O)c(=O)c1" , state its measured T/C.
Reply: 94

Query: Query T/C for CCOC(/C=C/c1ccccc1)c1ccc(C(C)C)cc(=O)c1O (configuration not stated)
Reply: 112

Query: Report T/C for CCOC(c1ccc(C)cc1)c1ccc(C(C)C)cc(=O)c1O (configuration not stated)
Reply: 105

Query: State, in one line, measured T/C of CCOC(c1ccc(Cl)cc1)c1ccc(C(C)C)cc(=O)c1O (configuration not stated)
Reply: 99

Query: # return recorded T/C for input CC(C)c1ccc(C2OCCc3ccccc32)c(O)c(=O)c1 (configuration not stated)
Reply: 127

Query: Provide T/C value for the following compound: COc1cc(C(C)C)ccc(C2OCCc3ccccc32)c1=O (configuration not stated)
Reply: 92

---

Would you mind telling me the reported IC50 of each entry?
system: KB; experiment: In vitro inhibitory activity against growth of KB cells derived from human epidermoid carcinoma of the mouth; type: functional; conditions: Homo sapiens, KB; read-out: ID50 (the source's name)
Your answer should be a plain number; it is taken to be in µg/mL.

Query: Tell me measured IC50 for CC(C)c1ccc(C2OCCc3ccccc32)c(O)c(=O)c1 (centres undefined) please.
Reply: 0.5

Query: Give IC50 for the following compound: COc1c(C2OCCc3ccccc32)ccc(C(C)C)cc1=O (centres undefined)
Reply: 18

Query: Supply recorded IC50 for "CC(C)c1ccc(C(c2ccc(Cl)cc2)c2ccc(C(C)C)cc(=O)c2O)c(O)c(=O)c1" here.
Reply: 2

Query: Supply IC50 value. Item: CCOC(c1ccccc1)c1ccc(C(C)C)cc(=O)c1O (centres undefined)
Reply: 0.3

Query: Supply IC50 value. Item: C/C=C/C(OCC)c1ccc(C(C)C)cc(=O)c1O (centres undefined)
Reply: 1.2

Query: Quickly give me recorded IC50 for CCOC(c1ccc(N(C)C)cc1)c1ccc(C(C)C)cc(=O)c1O (centres undefined)
Reply: 0.6

Query: Quick one: give measured IC50 for "CC(C)c1ccc(Cc2ccccc2)c(O)c(=O)c1"
Reply: 0.5

Query: Kindly indicate its recorded IC50. Item: "CC(C)c1ccc(C(c2ccccc2)c2ccc(C(C)C)cc(=O)c2O)c(O)c(=O)c1"
Reply: 0.3

Query: Report IC50 for "COc1cc(C(C)C)cccc1=O"
Reply: 49.5

Query: Determine from records and report IC50 for "CC(C)c1ccc(C(c2ccccc2)c2ccccc2)c(O)c(=O)c1"
Reply: 1.4

Query: Dear colleague, please send me the reported IC50 for CCOC(c1ccc(C)cc1)c1ccc(C(C)C)cc(=O)c1O (centres undefined) when you can.
Reply: 6.2

Query: Using known records, supply IC50 for O=c1ccccc(C2OCCc3ccccc32)c1O (centres undefined)
Reply: 0.5

Query: Please report the measured IC50 for CCOC(c1ccc(Cl)cc1)c1ccc(C(C)C)cc(=O)c1O (centres undefined)
Reply: 0.3

Query: Identify the reported IC50 for the following entry. COc1cc(C(C)C)ccc(C2OCCc3ccccc32)c1=O (centres undefined)
Reply: 29

---

system: KB; assay: In vitro inhibitory activity against growth of KB cells derived from human epidermoid carcinoma of the mouth; type: functional; conditions: Homo sapiens, KB; read-out: ID50 (the source's name)
Endpoint: IC50 (µg/mL)
Response body: numeric value in µg/mL, unit text excluded.

Query: Return value of IC50 for input "Cc1ccc(C(c2ccc(C(C)C)cc(=O)c2O)c2ccc(C(C)C)cc(=O)c2O)cc1" , no commentary.
Reply: 1.5

Query: Look up and state reported IC50 for "COc1cccc(C(c2ccc(C(C)C)cc(=O)c2O)c2ccc(C(C)C)cc(=O)c2O)c1"
Reply: 1.1

Query: Please give measured IC50 of the following entry: CCOC(c1ccc(OC)cc1)c1ccc(C(C)C)cc(=O)c1O (centres undefined)
Reply: 0.5

Query: Output IC50 of "COc1ccc(C(c2ccc(C(C)C)cc(=O)c2O)c2ccc(C(C)C)cc(=O)c2O)cc1"
Reply: 0.5

Query: State its IC50 for this compound: "CC(C)c1ccc(C(c2ccc(N(C)C)cc2)c2ccc(C(C)C)cc(=O)c2O)c(O)c(=O)c1"
Reply: 0.7

Query: Using the record for "CC(C)c1cccc(=O)c(O)c1" , state its measured IC50.
Reply: 0.5

Query: Kindly indicate its recorded IC50. Item: "COc1cc2c(c(OC)c1OC)-c1ccc(OC)c(=O)cc1[C@@H](NC(C)=O)CC2"
Reply: 2.2

Query: Name the recorded IC50 of the compound listed here: "COc1ccc(C(c2cc(C(C)C)ccc(=O)c2O)c2cc(C(C)C)ccc(=O)c2O)cc1"
Reply: 0.3

Query: Give the reported IC50 for this compound. "COc1ccc(C(c2ccc(C(C)C)cc(=O)c2O)c2ccc(C(C)C)cc(=O)c2O)cc1OC"
Reply: 0.3

---

tested on: Mus musculus; experiment: In vivo antitumor activity was measured in mice (P388 leukemia) at dose 200 mg/kg after intraperitoneal administration; assay type: functional
Exercise: state measured T/C for each of the compounds provided.
Write it as a number; the unit % goes unstated.

Query: Determine reported T/C for COc1cc(C(C)C)ccc(C2OCCc3ccccc32)c1=O (stereo not drawn) ; test system: Mus musculus.
Reply: 94

Query: Answer with T/C of CCOC(c1ccc(N(C)C)cc1)c1ccc(C(C)C)cc(=O)c1O (stereo not drawn) measured for Mus musculus.
Reply: 128

Query: Report measured T/C on Mus musculus; entry: COc1c(C2OCCc3ccccc32)ccc(C(C)C)cc1=O (stereo not drawn)
Reply: 88

Query: Report T/C under test system Mus musculus for "COc1cc(C(C)C)cccc1=O" .
Reply: 0

Query: Please report the measured T/C for C/C=C/C(OCC)c1ccc(C(C)C)cc(=O)c1O (stereo not drawn) tested on Mus musculus.
Reply: 116

Query: State the measured T/C (Mus musculus) of CC(C)c1ccc(C2OCCc3ccccc32)c(O)c(=O)c1 (stereo not drawn)
Reply: 126

Query: State T/C (Mus musculus) of CCOC(c1ccc(OC)cc1)c1ccc(C(C)C)cc(=O)c1O (stereo not drawn) .
Reply: 128

Query: Look up and report T/C, with Mus musculus as system, for CCOC(c1ccc(C)cc1)c1ccc(C(C)C)cc(=O)c1O (stereo not drawn)
Reply: 105
